Provide the recorded protein stability index for the entries that follow.
B1: SPSB4 (parent)
chain: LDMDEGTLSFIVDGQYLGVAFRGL

# Variants of: B1
# method.summary: protein stability index of a GFP-peptide fusion (GPS, HEK-293T) (PSI 1-6); higher = more stable;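 also: lentivirally expressed fusions sorted by FACS into six bins by GFP to DsRed ratio, PSI derived from sequencing read proportions per bin multiplied by bin number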
# test.parameters: c terminus: a fixed tail appended
Output spec: single numeric token, no unit.

For this variant ( LDMDEGTLSFICDGQYLGVAFRGL ), measured protein stability index is 3.24

The measured protein stability index associated with LDMDEGTLSFIVDGQYLHVAFRGL reads 2.93

Measured protein stability index, LDMDEGTASFIVDGQYLGVAFRGL : 1.27

src = the supplement of paper PMC10567573
